Target protein (sequence): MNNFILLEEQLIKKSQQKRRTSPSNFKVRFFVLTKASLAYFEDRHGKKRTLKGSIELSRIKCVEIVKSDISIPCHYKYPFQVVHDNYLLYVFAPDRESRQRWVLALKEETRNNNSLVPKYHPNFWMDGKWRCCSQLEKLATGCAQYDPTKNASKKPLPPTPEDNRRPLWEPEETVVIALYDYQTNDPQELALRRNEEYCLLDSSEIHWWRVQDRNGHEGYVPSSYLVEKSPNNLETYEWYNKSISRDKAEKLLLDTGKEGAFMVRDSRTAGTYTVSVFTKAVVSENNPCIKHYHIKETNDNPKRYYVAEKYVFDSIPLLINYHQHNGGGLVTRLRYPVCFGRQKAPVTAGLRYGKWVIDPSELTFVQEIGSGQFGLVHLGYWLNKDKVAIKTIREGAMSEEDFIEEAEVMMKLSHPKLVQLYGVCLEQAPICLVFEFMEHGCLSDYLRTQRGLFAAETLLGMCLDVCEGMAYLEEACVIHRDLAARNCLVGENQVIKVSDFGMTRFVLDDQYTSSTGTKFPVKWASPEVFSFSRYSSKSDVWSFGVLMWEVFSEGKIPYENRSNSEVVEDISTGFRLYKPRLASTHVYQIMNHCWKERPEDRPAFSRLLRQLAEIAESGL
measuredParameter: IC50

The following compounds have reported results that may help.
Look at this compound and give its reported IC50. COc1cc(-c2cnc3[nH]cc(-c4cccc(C#N)c4)c3c2)cc(N(C)C(=O)/C=C/CN(C)C)c1
≤ 100 nM

State the recorded IC50 for this entry: COc1cc(-c2c[nH]c3ncc(-c4cncc(NC(=O)/C=C/CN(C)C)c4)cc23)ccn1
≤ 100 nM

Record IC50 per entry; entries follow.
1. COc1cc(NC(=O)/C=C/CN(C)C)cc(-c2cnc3[nH]cc(-c4ccnc(F)c4)c3c2)c1
2. CN(C)C/C=C/C(=O)Nc1cncc(-c2cnc3[nH]cc(-c4ccnc(F)c4)c3c2)c1
3. C=CC(=O)Nc1cc(-c2cnc3[nH]cc(-c4ccnc5[nH]ccc45)c3c2)cc(C(F)(F)F)c1
4. C=CC(=O)Nc1cc(-c2cnc3[nH]cc(-c4cncc(C#N)c4)c3c2)cc(C(F)(F)F)c1
5. COc1cc(NC(=O)/C=C/CN(C)C)cc(-c2cnc3[nH]cc(-c4ccnc5[nH]ccc45)c3c2)c1

1. ≤ 100 nM
2. ≤ 100 nM
3. ≤ 1000 nM
4. ≤ 100 nM
5. ≤ 100 nM

====

pIC50: −log10 of the molar value.
Quick note: these are pIC50 numbers for system: ITK (Homo sapiens)

Below: 2 molecules and their reported pIC50.
Which measured pIC50 value corresponds to C=CC(=O)Nc1cc(-c2cnc3[nH]cc(-c4cncnc4)c3c2)cc(C(F)(F)F)c1 ?
≥ 7.00

Reported pIC50, molecule C=CC(=O)Nc1cc(-c2cnc3[nH]cc(-c4ccncn4)c3c2)cc(C(F)(F)F)c1 : ____
≥ 7.00

Your task in this section: give pIC50 for each listed record.
1. C=CC(=O)Nc1cc(-c2cnc3[nH]cc(-c4ccnc(C#N)c4)c3c2)cc(-c2cnn(C)c2)c1
2. C=CC(=O)Nc1cc(-c2cnc3[nH]cc(-c4cccc(F)c4)c3c2)cc(C(F)(F)F)c1
3. CN(C)C/C=C/C(=O)Nc1cc(-c2cnc3[nH]cc(-c4ccnc5c4ccn5C)c3c2)cc(C(F)(F)F)c1
4. C=CC(=O)Nc1cc(-c2cnc3[nH]cc(-c4cccc(C#N)c4)c3c2)cc(C(F)(F)F)c1
5. C=CC(=O)Nc1cncc(-c2cnc3[nH]cc(-c4ccncn4)c3c2)c1
6. C=CC(=O)Nc1cc(OC)cc(-c2cnc3[nH]cc(-c4ccnc(OC)c4)c3c2)c1
7. CN(C)C/C=C/C(=O)Nc1cc(-c2cnc3c(c2)c(-c2cccc(C#N)c2)cn3C)cc(C(F)(F)F)c1

1: ≥ 7.00; 2: ≥ 6.00; 3: ≥ 7.00; 4: ≥ 6.00; 5: ≥ 7.00; 6: ≥ 7.00; 7: < 6.00

Provide pIC50 values for the following items, in order.
1. C=CC(=O)Nc1cc(-c2cnc3[nH]cc(-c4ccnc(NC)n4)c3c2)cc(C(F)(F)F)c1
2. COc1cc(-c2c[nH]c3ncc(-c4cc(NC(=O)/C=C/CN(C)C)cc(C(F)(F)F)c4)cc23)ccn1
3. Cc1cc(-c2c[nH]c3ncc(-c4cc(NC(=O)/C=C/CN(C)C)cc(C(F)(F)F)c4)cc23)ccn1

["≥ 7.00", "≥ 7.00", "≥ 7.00"]
